We begin with a simple list: items and their reported switch fluorescence ratio.
- Test system: ATP;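 note: ATP exposure 15 min at 22 °C before imaging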
- RUN DESCRIPTION: switch fluorescence ratio, 500 uM ATP over buffer (Cy3 cluster intensity, sum of 5 cycles each) (fold (ratio)); higher = stronger signal-on switching upon ATP binding; sequences stand for … in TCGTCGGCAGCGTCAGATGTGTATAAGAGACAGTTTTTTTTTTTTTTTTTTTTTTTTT…TC
- ASSAY SETUP: aptamer strand: ATP DNA aptamer (quencher-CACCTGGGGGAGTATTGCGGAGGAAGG + anchor), 100 nM annealed; ATP concentration: 500 uM
MEASURED QUANTITY: switch fluorescence ratio

1) GCGCGCCGGG    1.01
2) TGCAATTGTA    1.02
3) GGGAGCCGGT    1.02
4) TCGGAATTTT    1.03
5) TATTGGGCCC    0.995
6) ATTTGTCAGA    0.98
7) CTATAACGGG    0.981
8) GTTGTCGTTT    0.991
9) ATCTGTATCC    1.05
10) TAGGGAGGCT    0.992
